- tested_on: T1, mouse IL-2Rγ (mouse, UniProt P34902 23-263)
- T1 construct: also called mo IL-2R
- T1 sequence (looked up): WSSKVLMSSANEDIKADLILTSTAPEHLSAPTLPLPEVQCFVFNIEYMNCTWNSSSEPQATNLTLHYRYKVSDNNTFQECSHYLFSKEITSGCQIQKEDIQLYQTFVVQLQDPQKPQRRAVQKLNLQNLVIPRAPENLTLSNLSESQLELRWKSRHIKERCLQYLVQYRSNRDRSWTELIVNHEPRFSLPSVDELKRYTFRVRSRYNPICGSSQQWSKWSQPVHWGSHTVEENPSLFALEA
- assay_comment: SPR off-rate ranking, periplasmic extract on immobilised protein
Measured koff accompanies every entry in the list below.
Numeric answer only, unit s⁻¹ assumed.

| binder | value_reported |
| --- | --- |
| FJ1427_P035MP04C04 (VHH, VHH in periplasmic extract; also called clone nr) VHH: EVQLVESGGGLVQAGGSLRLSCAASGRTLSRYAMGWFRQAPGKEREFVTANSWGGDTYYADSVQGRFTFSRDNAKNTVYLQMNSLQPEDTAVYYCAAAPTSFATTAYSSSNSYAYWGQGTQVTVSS | 0.151 |

Requested field: koff. Item: FJ1427_P035MP04C06 (VHH, VHH in periplasmic extract; also called clone nr) VHH: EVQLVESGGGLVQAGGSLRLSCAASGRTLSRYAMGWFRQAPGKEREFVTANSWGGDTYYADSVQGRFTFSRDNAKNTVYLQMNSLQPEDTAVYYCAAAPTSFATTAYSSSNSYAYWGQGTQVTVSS 0.0465

The values you see were collected from patent US20240409645A1.
